Taken from PubChem BioAssay (NCI).

Tested on: NCI-H460 lung
Assay: NCI-60 one-dose screen, 48 h
Conditions: 10 µM unless noted
This is part of a sample that, as a whole, favours compounds with a hit. Of some 83,000 tested, about 20% had one in any assay. The source made the active and inactive calls. How the source made its calls: active means growth percent below 10; inactive means the rest.
Bench note: report the call from T for active, F for inactive

Some solved entries appear below for comparison.
{"Compound": "C=C(C)[C@@H]1CC[C@]2(C(=O)n3ccnc3)CC[C@]3(C)[C@H](CC[C@@H]4[C@@]5(C)CCCNC(C)(C)[C@@H]5CC[C@]43C)[C@@H]12", "Label Class": "T"}
{"Compound": "COc1cc(C(=O)Nc2cc(O)c(C/C=C(\\C)CCC=C(C)C)c(O)c2)cc2c1O[C@]1(C)CC[C@@H](O)C(C)(C)[C@H]1C2", "Label Class": "F"}
{"Compound": "CC(C)(C)c1ccc(O)c(Cc2cc(C(C)(C)C)ccc2O)c1", "Label Class": "F"}
{"Compound": "CC1(c2ccccc2Cl)NC(=O)NC1=O (stereo unspecified)", "Label Class": "F"}
{"Compound": "NCCN1CCNCC1", "Label Class": "F"}

Please indicate how the test categorized c1ccc(-c2n(Cc3ccc4ccccc4n3)cc[n+]2Cc2ccc3ccccc3c2)cc1 .
T

Please indicate how the test categorized NS(=O)(=O)c1ccc(N2Cc3cc(Cl)ccc3OC3=C2C(=O)N(CC2CCCCC2)C3=O)cc1 .
T

Please indicate how the test categorized C=C1C(=O)O[C@H]2[C@H]1CC/C(COC(=O)c1cn(C)c3ccccc13)=C\CC[C@@]1(C)O[C@@H]21 .
F

Please indicate how the test categorized Cc1c(Cl)cccc1NC(=O)c1sc2nc3c(cc2c1N)CCCCC3 .
F

Please indicate how the test categorized NC(=O)c1ccc2nc3c(n2c1)C(=O)C(=O)c1ccccc1-3 .
T

Please indicate how the test categorized C#C[C@@]1(O)[C@@H](CO)O[C@@H](n2cc(I)c3c(N)ncnc32)[C@@H]1O .
T

Please indicate how the test categorized COc1cc(C2=N/C(=C\c3cc4ccccc4nc3Oc3ccccc3)C(=O)N2C(=N)N)cc(OC)c1OC .
F

Please indicate how the test categorized COc1cc(C(=O)Nc2cc(OC)c3ccn(C)c3c2)cc2c1C[C@]1(C)CC[C@@H](O)C(C)(C)[C@H]1O2 .
F

----------
Test system: OVCAR-3 ovarian
Assay: NCI-60 one-dose screen, 48 h (100 = growth as untreated, 0 = no growth, -100 = all killed)
Conditions: 10 µM unless noted
About 83,000 compounds went through this panel and 20% of them were active in at least one assay; those are over-represented in the sample as a whole.
# key: entry, value: growth
Kindly provide the numeric value in % only, without the unit symbol.

{"Compound": "C=C(C)[C@@H]1CC[C@]2(C(=O)n3ccnc3)CC[C@]3(C)[C@H](CC[C@@H]4[C@@]5(C)CCCNC(C)(C)[C@@H]5CC[C@]43C)[C@@H]12", "Measured Result": 30.9}

Given COc1ccc(C2N(c3cc(OC)c(OC)c(OC)c3)C(=O)C2(F)F)cc1F (centres undefined) , state its recorded growth.
17.6

Given C=C1C(=O)O[C@H]2[C@H]1CC/C(C=Nc1c(N)cc(C(F)(F)F)cc1Br)=C\CC[C@@]1(C)O[C@@H]21 , state its recorded growth.
-91.9

Given O=C(CSC(=S)N1CCCCC1)Nc1ccccc1 , state its recorded growth.
107
